- target_entity: FPR2 (Homo sapiens)
- Sequence (P25090 whole entry): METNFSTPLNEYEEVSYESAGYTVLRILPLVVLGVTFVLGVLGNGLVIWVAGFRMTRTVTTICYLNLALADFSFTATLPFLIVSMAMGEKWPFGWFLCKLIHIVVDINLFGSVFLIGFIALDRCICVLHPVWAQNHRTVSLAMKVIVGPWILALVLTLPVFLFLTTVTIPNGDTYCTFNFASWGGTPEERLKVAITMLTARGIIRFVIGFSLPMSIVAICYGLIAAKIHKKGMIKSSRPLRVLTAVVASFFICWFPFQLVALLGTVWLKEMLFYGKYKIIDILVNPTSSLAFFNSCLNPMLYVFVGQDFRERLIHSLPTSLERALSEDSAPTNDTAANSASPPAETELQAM
- test_details: Intracellular calcium mobilization assay, FPR2 cells (agonist and antagonist determinations)
- condition_summary: antagonist determination, Wpep at EC90; read-out: IC50, intracellular Ca2+ response, FPR2 antagonist
measure_name: IC50 (nM)

- CC(C)[C@H]1CNC(=O)C(=O)N1C[C@@H]1CCCN1C[C@@H](Cc1ccc2ccccc2c1)N1C[C@@H](Cc2ccc(O)cc2)N(CC2CCCCC2)C(=O)C1=O [1754-31]: 81

====

- target_entity: FPR1 (Homo sapiens, UniProt P21462)
- Sequence (P21462 whole entry): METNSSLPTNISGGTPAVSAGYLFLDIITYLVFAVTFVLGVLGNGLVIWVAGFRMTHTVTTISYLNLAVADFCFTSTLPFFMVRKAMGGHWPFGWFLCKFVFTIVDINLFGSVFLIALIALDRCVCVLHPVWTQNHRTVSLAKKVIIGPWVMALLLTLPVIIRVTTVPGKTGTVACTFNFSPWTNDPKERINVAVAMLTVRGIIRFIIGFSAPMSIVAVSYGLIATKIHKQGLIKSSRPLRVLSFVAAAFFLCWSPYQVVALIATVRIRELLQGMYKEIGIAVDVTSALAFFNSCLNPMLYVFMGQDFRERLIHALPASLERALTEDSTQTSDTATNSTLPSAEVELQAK
- test_details: Intracellular calcium mobilization assay, FPR1 cells (agonist and antagonist determinations)
- condition_summary: agonist determination; read-out: EC50, intracellular Ca2+ response, FPR1 agonist
pEC50: −log10 of the molar value.
measure_name: pEC50

- CCCC[C@H](CN(C(=O)Nc1ccccc1)[C@@H](C)CNC(=O)Nc1ccccc1)N(CCCCc1ccccc1)C(=O)Nc1ccccc1 [1753-103]: 6.88
